- Tested on: Trypanosoma cruzi
- procedure-details: Antitrypanosomal activity against Trypanosoma cruzi Tulahuen 2 epimastigotes assessed as inhibition of parasite growth at 25 uM after 5 days by spectrophotometric analysis
- Assay type: functional
- experimental-context: Tulahuen 2, 120 h, read-out: GI
Listing of recorded inhibition of growth at 25 µM by entry.
parameter-measured: inhibition of growth at 25 µM (%)

COc1ccc2c(c1OC)CC/C2=N\NC(N)=S
98.9
NC(=S)N/N=C1\CCc2ccc([N+](=O)[O-])cc21
3.1
Cc1ccc2c(c1)CC/C2=N\NC(N)=S
100
CC1CS(=O)(=O)CCN1/N=C/c1ccc([N+](=O)[O-])o1 (stereo unspecified)
100
COc1cccc2c1CC/C2=N\NC(N)=S
84.2
COc1ccc2c(c1)/C(=N/NC(N)=S)CC2
100

###

- Tested on: Trypanosoma cruzi
- procedure-details: Antitrypanosomal activity against Trypanosoma cruzi Tulahuen 2 epimastigotes assessed as inhibition of parasite growth at 25 uM after 5 days by spectrophotometric analysis
- Type: functional
- experimental-context: Tulahuen 2, 120 h, read-out: GI
Each entry below carries its reported inhibition of growth at 25 µM.
parameter-measured: inhibition of growth at 25 µM

Cc1cc(C)c2c(c1)CC/C2=N\NC(N)=S
66.5%
S=C(N/N=C1\CCc2ccccc21)Nc1ccccc1
69.6%
COc1cc2c(cc1OC)/C(=N/NC(=S)Nc1ccccc1)CC2
67.5%
NC(=S)N/N=C1\CCc2cc(F)ccc21
84.2%
COc1ccc2c(c1)CC/C2=N\NC(N)=S
92.1%
Cc1ccc(NC(=S)N/N=C2\CCc3ccccc32)cc1
76%
Cc1cc(C)c2c(c1Br)CC/C2=N\NC(N)=S
100%

###

- experimental-system: Cruzipain (Trypanosoma cruzi)
- procedure-details: Inhibition of Trypanosoma cruzi cruzipain using Z-Phe-Arg-AMC as substrate at 100 uM preincubated for 5 mins before substrate addition measured after 10 mins by spectrofluorometry
parameter-measured: inhibition (%)

CC/C(=N\N=C(\N)S)c1cccc(Br)c1
100
COc1cc2c(cc1OC)/C(=N/NC(=S)Nc1ccccc1)CC2
0
COc1cc2c(cc1OC)/C(=N/NC(=S)Nc1ccc(Cl)cc1)CC2
67
COc1ccc2c(c1OC)CC/C2=N\NC(N)=S
61
COc1cccc2c1CC/C2=N\NC(N)=S
9.8
COc1cc2c(cc1OC)/C(=N/NC(N)=S)CC2
1.7
COc1ccc2c(c1)/C(=N/NC(N)=S)CC2
0
NC(=S)N/N=C1\CCc2ccc([N+](=O)[O-])cc21
24

###

- Test system: Trypanosoma cruzi
- procedure-details: Antitrypanosomal activity against Trypanosoma cruzi Tulahuen 2 epimastigotes assessed as inhibition of parasite growth at 25 uM after 5 days by spectrophotometric analysis
- Assay type: functional
- experimental-context: Tulahuen 2, 120 h, read-out: GI
parameter-measured: inhibition of growth at 25 µM (%)

NC(=S)N/N=C1\CCc2cc(Cl)ccc21
1.7
COc1cc2c(cc1OC)/C(=N/NC(=S)Nc1ccc(Cl)cc1)CC2
77
COc1cc2c(cc1OC)/C(=N/NC(N)=S)CC2
19
NC(=S)N/N=C1\CCc2ccccc21
80.8
NC(=S)N/N=C1\CCc2cc(Br)ccc21
98.8
COc1cc2c(cc1OC)/C(=N/NC(=S)Nc1ccc(C)cc1)CC2
77.7
NC(=S)N/N=C1\CCc2c1cccc2[N+](=O)[O-]
22
C[C@@H]1[C@H](O)[C@@H](C)/C=C/C=C/C=C/C=C/C=C/C=C/C=C/[C@H](O[C@@H]2O[C@H](C)[C@@H](O)[C@H](N)[C@@H]2O)C[C@@H]2O[C@](O)(C[C@@H](O)C[C@@H](O)[C@H](O)CC[C@@H](O)C[C@@H](O)CC(=O)O[C@H]1C)C[C@H](O)[C@H]2C(=O)O
100
Cc1cc2c(c(C)c1Cl)CC/C2=N\NC(N)=S
83.7
Cc1cc(Br)c(C)c2c1/C(=N/NC(N)=S)CC2
51
S=C(N/N=C1\CCc2ccccc21)Nc1ccc(Cl)cc1
50.8
Cc1cc2c(c(C)c1Cl)/C(=N/NC(N)=S)CC2
14.4
Cc1cccc2c1CC/C2=N\NC(N)=S
98.5
